Target: caspase-3 (Homo sapiens, UniProt P42574)
Construct: made in house; host or cells: E. coli
Sequence (P42574 29-175 limits assumed): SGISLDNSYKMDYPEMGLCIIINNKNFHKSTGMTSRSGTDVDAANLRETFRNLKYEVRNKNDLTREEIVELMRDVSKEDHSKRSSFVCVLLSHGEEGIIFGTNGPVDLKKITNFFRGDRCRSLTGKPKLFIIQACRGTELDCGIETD
Sequence (P42574 176-277 limits assumed): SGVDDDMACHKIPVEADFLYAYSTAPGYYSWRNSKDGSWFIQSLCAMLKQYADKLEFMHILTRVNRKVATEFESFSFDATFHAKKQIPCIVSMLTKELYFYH
Assay: Caspase-3 progress curve assay
Format: biochemical
Settings: substrate Z-DEVD-AFC; NI = no inhibition
test-readout: k2 caspase-3 (M⁻¹ s⁻¹)
Unit M⁻¹ s⁻¹ implied. Number only.

Name the reported k2 caspase-3 value associated with the compound CC(C)C[C@H](NC(=O)OCc1ccccc1)C(=O)N[C@@H](CCC(=O)O)C(=O)N[C@H](C(=O)NN(CC(=O)O)C(=O)[C@H]1O[C@@H]1C(=O)NC(C)C(=O)NCc1ccccc1)[C@@H](C)O (some centres unmarked) [26j] 1280

What about `CC(C)C[C@H](NC(=O)OCc1ccccc1)C(=O)N[C@@H](CCC(=O)O)C(=O)N[C@H](C(=O)NN(CC(=O)O)C(=O)[C@H]1O[C@@H]1C(=O)N(Cc1ccccc1)Cc1ccccc1)[C@@H](C)O` ? 2750

What about CC(C)C[C@H](NC(=O)OCc1ccccc1)C(=O)N[C@@H](CCC(=O)O)C(=O)N[C@H](C(=O)NN(CC(=O)O)C(=O)[C@H]1O[C@@H]1C(=O)NCCc1ccccc1)[C@@H](C)O [26h] ? 2550

What about CC[C@H](C)[C@H](NC(=O)OCc1ccccc1)C(=O)N[C@@H](CCC(=O)O)C(=O)N[C@H](C(=O)NN(CC(=O)O)C(=O)[C@H]1O[C@@H]1C(=O)OCc1ccccc1)[C@@H](C)O [27d (S,S)] ? 9545

What about CC(C)[C@H](NC(=O)CCc1ccccc1)C(=O)N[C@@H](C)C(=O)NN(CC(=O)O)C(=O)[C@H]1O[C@@H]1C(=O)OCc1ccccc1 [23d (S,S)] ? 1470
